The measurements presented in this section are drawn from ChEMBL document CHEMBL1123061.

- System: Fasciola hepatica
- Experiment: In vivo for fasciolicidal activity against Fasciola hepatica infections in rats following s.c. administration.
Hi there, I'd appreciate the recorded Dose for every entry that follows.
One number for each entry, in mg/kg.

I have 2 molecules here; please give me Dose for each one.
1. Cc1cc(C(=O)c2ccc(Cl)cc2)cc(C(=O)Nc2ccc([N+](=O)[O-])cc2Cl)c1O
2. Cc1cc(C(=O)c2ccc(Cl)c(Cl)c2)cc(C(=O)Nc2ccc([N+](=O)[O-])cc2Cl)c1O

[6.3, 3.1]

---

- Test system: Fasciola hepatica
- Experiment: In vivo for fasciolicidal activity against Fasciola hepatica infections in rats following s.c. administration.
Quantity kind: log10 Dose (log10 of the value in mg/kg)
For clarity, the numbers are log10 values of Dose expressed in mg/kg.

Suppose we examine the compound `Cc1cc(C(=O)c2ccc([N+](=O)[O-])cc2)cc(C(=O)Nc2ccc([N+](=O)[O-])cc2Cl)c1O` ; what log10 Dose value has been reported? 0.80

I have 6 compounds here; please give me log10 Dose for each one.
1. Cc1c(C(=O)c2ccc(Cl)cc2)cc(C(C)(C)C)c(O)c1C(=O)Nc1ccc([N+](=O)[O-])cc1Cl
2. Cc1cc(C(=O)c2ccc([N+](=O)[O-])cc2)cc(C(=O)Nc2ccc(Cl)cc2Cl)c1O
3. Cc1cc(C(=O)c2ccc(Cl)cc2)cc(C(=O)Nc2ccc([N+](=O)[O-])cc2C(F)(F)F)c1O
4. Cc1cc(C(=O)c2ccc(I)cc2)cc(C(=O)Nc2ccc([N+](=O)[O-])cc2Cl)c1O
5. Cc1cc(C(=O)c2ccc(Cl)cc2)cc(C(=O)Nc2ccc(C#N)cc2)c1O
6. Cc1cc(C(=O)c2ccc(Cl)cc2)cc(C(=O)Nc2ccc([N+](=O)[O-])cc2Br)c1O

1: 0.20; 2: 1.10; 3: 0.80; 4: 1.10; 5: 2.00; 6: 0.49

I have 7 compounds here; please give me log10 Dose for each one.
1. Cc1cc(C(=O)c2ccc(Cl)cc2)cc(C(=O)Nc2ccc(Br)cc2C(F)(F)F)c1O
2. Cc1cc(C(=O)c2ccc(C#N)cc2)cc(C(=O)Nc2ccc([N+](=O)[O-])cc2Cl)c1O
3. O=C(Nc1ccc(Oc2ccc(Cl)cc2)c(Cl)c1)c1cc(I)cc(I)c1O [RAFOXANIDE]
4. Cc1cc(Oc2ccccc2)cc(C(=O)Nc2ccc(Cl)cc2Cl)c1O
5. Cc1cc(Cc2ccccc2)cc(C(=O)Nc2ccc(Cl)cc2Cl)c1O
6. Cc1cc(C(=O)c2ccc(Cl)cc2)c(C)c(C(=O)Nc2ccc([N+](=O)[O-])cc2Cl)c1O
7. Cc1cc(C(=O)c2ccc(Br)cc2)cc(C(=O)Nc2ccc(Cl)cc2Cl)c1O

1: 0.80; 2: 0.80; 3: 1.10; 4: 2.00; 5: 2.00; 6: 0.49; 7: 2.00
